Test system: SF-295 CNS
Procedure Details: NCI-60 one-dose screen, 48 h
Stated Conditions: 10 µM unless noted
About 83,000 compounds went through this panel and 20% of them were active in at least one assay; those are over-represented in the sample as a whole. Active and inactive are the calls of the source. The calls were made as follows: active = growth percent below 10; inactive = the rest. *1 amine or outer side, *2 acyl side, *3 side chain or, on linkers, in order; H or OH if unused. Where a SMILES comes first, the peptide text is derived from it. Bridges are numbered along the chain shown (N, C = ends). Roman numbers before positions name the chains, in order. [ ]: non-standard residue; d: D form. Actinocin(1to9) = Cc1c2oc3c(C)ccc(C(=O)[*:2])c3nc-2c(C(=O)[*:1])c(N)c1=O; NMeV = CN[CH](C(=O)O)C(C)C; Sar = CNCC(=O)O
Valid outcomes are listed here; reply with one: 1 (yes) for active, 0 (no) for inactive

COc1cc(OC)c(/C=C/c2c3ccccc3cc[n+]2C)c(OC)c1; 1 (yes)
COc1cc(/C=C2\SC(=S)N(/C=C/c3nc4ccccc4[nH]c3=O)C2=O)cc(OC)c1OC; 0 (no)
COC(=O)c1cc([N+](=O)[O-])cc([N+](=O)[O-])c1Cl; 0 (no)
CC1(C)N=c2cc3c(cc2N1c1ccc(Cl)cc1)=Nc1ccccc1N3c1ccc(Cl)cc1; 0 (no)
C=C(C(N)=O)C(N)C(=O)O (configuration not stated); 0 (no)
O=C1C=Cc2ccccc2/C1=C/c1nc(-c2ccccc2)oc1O; 0 (no)
Cc1c(O)ccc(SC#N)c1C; 0 (no)
CN1CCC(CN2c3ccccc3Sc3ccccc32)C1 (configuration not stated); 0 (no)
CCN(CC)CCNc1ccc([N+](=O)[O-])c2sc3ccccc3c(=O)c12; 1 (yes)
O=C1C=CC(O)=CC1=P(c1ccccc1)(c1ccccc1)c1ccccc1; 0 (no)

Exam item: For `c1ccc(-c2cc3cc4ccccc4cn3c2)cc1` , what call appears in the results of this test?
Marked response: 0 (no)

Exam item: For CCC(C)C1NC(=O)C(NC(=O)c2c3nc4c(C(=O)NC5C(=O)NC(C(C)CC)C(=O)N6CCCC6C(=O)N(C)CC(=O)N(C)C(C(C)C)C(=O)OC5C)ccc(C)c4oc-3c(C)c(=O)c2N)C(C)OC(=O)C(C(C)C)N(C)C(=O)CN(C)C(=O)C2CCCN2C1=O (configuration not stated) (I: TIP[Sar][NMeV] / II: TIP[Sar][NMeV]; ester I:1-I:C, II:1-II:C; linker I:N-II:N via Actinocin(1to9); configuration not given here) , what call appears in the results of this test?
Marked response: 1 (yes)

Exam item: For `O=C1CSC(=S)N1Cc1cccnc1` , what call appears in the results of this test?
Marked response: 0 (no)

---

Tested on: PC-3 prostate
Procedure Details: NCI-60 one-dose screen, 48 h (100 = growth as untreated, 0 = no growth, -100 = all killed)
Stated Conditions: 10 µM unless noted
Compounds without any hit were thinned out: in the full panel of roughly 83,000, 20% have a hit.
Classify by growth. Ranges: LOW = under 30%, MEDIUM = from 30% up to 80%, HIGH = 80% and over

c1ccc(-c2cccc(-c3ccccn3)n2)nc1; MEDIUM

Exam item: Place this compound in its band: `O=C(/C=C/C(Cl)(Cl)Cl)Nc1ccc(Cl)cc1`
Marked response: HIGH

Exam item: Place this compound in its band: CCOc1ccc2c(c1)/C(=C\C=C\C1CC(C)C3CC(OCC)CCC3N1CC)CC(C)N2CC (centres undefined)
Marked response: LOW

Exam item: Place this compound in its band: `Cc1nc(Sc2nc3ccc([N+](=O)[O-])cc3s2)sc1C`
Marked response: LOW

Exam item: Place this compound in its band: `O=C(NNc1ccccc1)OCc1ccccc1`
Marked response: MEDIUM

Exam item: Place this compound in its band: COC1CC(C)C(OC)c2cc(O)cc(c2O)NC(=O)/C(C)=C/C=C\C(C)C(OC(N)=O)/C(C)=C\C(C)C1OC (centres undefined)
Marked response: LOW

Exam item: Place this compound in its band: Nc1nc2ncc(CNc3ccc(C(=O)NC(CCC(=O)NC(CCC(=O)NC(CCC(=O)NC(CCC(=O)NC(CCC(=O)O)C(=O)O)C(=O)O)C(=O)O)C(=O)O)C(=O)O)cc3)nc2c(=O)[nH]1 (centres undefined)
Marked response: HIGH

Exam item: Place this compound in its band: `CCOc1cc(F)c([N+](=O)[O-])cc1[N+](=O)[O-]`
Marked response: MEDIUM
